- testTarget: Prostaglandin E2 receptor EP2 subtype (Homo sapiens)
- experimentalDetails: blockers of PGE2-driven EP2 cAMP signalling – TR-FRET cAMP, C6 glioma cells, primary screen (AID 1422);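 note: rat C6 glioma host cells with rolipram phosphodiesterase inhibitor present; the protocol text gives 20 µM as final concentration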
- appliedConditions: C6 glioma cells expressing human EP2, cAMP TR-FRET; at 25 µM; active compounds read high; cells stimulated with saturating PGE2
The campaign covered roughly 260,000 compounds. About 1,300 (0.5%) were called active. The sample holds actives, similar compounds and a random draw of the others, so the mix is not that of the screen.
// reported inhibition for each item listed
Write it as a number; the unit % goes unstated.

Past entries and their recorded results:
| compound | inhibition (%) |
| --- | --- |
| CC(=O)Nc1ccc(S(=O)(=O)Nc2nc(-c3ccc(C(C)(C)C)cc3)cs2)cc1 | 4.4 |
| CC1CCc2c(sc3ncnc(SCc4cc(=O)[nH]c5ccccc45)c23)C1 (stereo not drawn) | 13.1 |
| CNc1ncnc2c1ncn2[C@@H]1O[C@H](CO)[C@H](O)C1O (stereo partly drawn) | 13.5 |
| Cc1ccc(NC=C2C(=O)OC(C)(C)OC2=O)cc1Cl | 10 |
| Cc1ccc(-c2nc3ccccc3[nH]c2=O)cc1 | 12.3 |
| COc1ccc(CNc2sc3c(c2C(=O)Nc2ccccc2OC)CCC3)cc1 | 8.59 |
| O=C(c1ccc([N+](=O)[O-])cc1)[C@@H](Br)[C@@H](Br)c1ccnc2ccccc12 | 99.4 |
| COc1ccc(C2(C(=O)NCCn3nc(-c4cccs4)ccc3=O)CC2)cc1 | 4.83 |
| CC(=O)Nc1ccc(-c2csc(NC(=O)Nc3ccccc3)n2)cc1 | 55 |
| Cc1nn(CC(=O)Nc2cccc3ncccc23)c(=O)c2ccccc12 | 6.79 |

INPUT: Answer with the recorded inhibition for the compound listed here: "O=C(CN1CCC(n2nnc3cc(F)ccc32)CC1)Nc1cccc(F)c1"
OUTPUT: 10.2

INPUT: Answer with the recorded inhibition for the compound listed here: "OC[C@@H]1O[C@H](n2cnc3c(SCc4ccccc4)ncnc32)[C@H](O)[C@H]1O"
OUTPUT: 48.2

INPUT: Answer with the recorded inhibition for the compound listed here: "Cc1ccc(-n2ccc(=O)c(C(=O)O)n2)cc1"
OUTPUT: 11.4
